Source: ChEMBL document CHEMBL3352249

Biological target: Protein farnesyltransferase (Homo sapiens, UniProt P49354+P49356)
Assay: Inhibition of human recombinant farnesyltransferase using Dansyl-GCVLS peptide as substrate at 100 uM after 15 mins by fluorescence assay
measureName: inhibition (%)

C#CCOC(=O)c1cc(C(=O)c2ccc(Cl)cc2)n2ccccc12
54
C#CCOC(=O)c1cc(C(=O)c2ccccc2)n2ccccc12
100
Cc1ccn2c(C(=O)c3ccccc3)cc(C(=O)O)c2c1
100
C#CCOC(=O)c1cc(C(=O)c2ccc(Br)cc2)n2c(C)cccc12
100
C#CCNC(=O)c1cc(C(=O)c2ccc(Cl)cc2)n2ccccc12
94
C#CCNC(=O)c1cc(C(=O)c2ccccc2)n2ccc(C)cc12
100
C#CCCOC(=O)c1cc(C(=O)c2ccc(Br)cc2)n2c(C)cccc12
100
O=C(O)c1cc(C(=O)c2ccccc2)n2ccccc12
100
C#CCCOC(=O)c1cc(C(=O)c2ccc(Cl)cc2)n2c(C)cccc12
97
O=C(O)c1cc(C(=O)c2ccc(Br)cc2)n2ccccc12
100
C#CCCOC(=O)c1cc(C(=O)c2ccc(Cl)cc2)n2ccccc12
0
C#CCNC(=O)c1cc(C(=O)c2ccc(Br)cc2)n2ccccc12
100
C#CCOC(=O)c1cc(C(=O)c2ccc(Cl)cc2)n2c(C)cccc12
100
C#CCOC(=O)c1cc(C(=O)c2ccccc2)n2ccc(C)cc12
72
C#CCCOC(=O)c1cc(C(=O)c2ccccc2)n2ccc(C)cc12
0
Cc1cccc2c(C(=O)O)cc(C(=O)c3ccc(Br)cc3)n12
91
C#CCCOC(=O)c1cc(C(=O)c2ccc(Br)cc2)n2ccc(C)cc12
68
O=C(O)c1cc(C(=O)c2ccc(Cl)cc2)n2ccccc12
100
Cc1ccn2c(C(=O)c3ccc(Cl)cc3)cc(C(=O)O)c2c1
0
Cc1cccc2c(C(=O)O)cc(C(=O)c3ccccc3)n12
48
Cc1cccc2c(C(=O)O)cc(C(=O)c3ccc(Cl)cc3)n12
79
C#CCCOC(=O)c1cc(C(=O)c2ccccc2)n2ccccc12
61
C#CCOC(=O)c1cc(C(=O)c2ccc(Cl)cc2)n2ccc(C)cc12
0
